ENDPOINT NAME: melting point

Lab note: measured melting point of CC(C)(C)P1(=S)CCC1 was 120 to 121 °C

The value of melting point measured for the compound OC(CN1CCNC1=S)c1cccc(F)c1 (stereo unspecified) turned out to be 116 °C

The reported melting point of the compound CCOC(=O)C1=C(c2cccs2)Nc2n[nH]cc2C1c1ccccc1Cl (stereo unspecified) was 200 °C

Lab book: melting point of CCn1cc(C(=O)NCc2ccc(Cl)cc2)c(=O)c2cc(CN3CCOCC3)sc21 noted as 194 to 196 °C

Lab book: melting point of CCOC(=O)COc1ccc(C[C@H](C)NS(=O)(=O)c2ccccc2)cc1 noted as 109 to 110 °C

Documented melting point of CC(C)C(=O)NCCO : 54 to 57 °C

###

Would you kindly list melting point for each of these molecules?

Form field melting point, entry CCOc1cc2c(cn1)[nH]c1ccccc12 : 130 to 133 °C

For record CC(O)(c1ccc(Oc2ccccc2)cc1)c1cccnc1 (stereo unspecified) the listed melting point is 130 to 132 °C

// field: melting point; key: ClCc1cccc2cc(-c3ccccc3)oc12 ; value = 72 to 73 °C

Entry COc1cc2c(c(Cl)c1Cl)SCC2O (stereo unspecified) ; melting point = 122 to 124 °C

CCCN(CCC)Cc1csc(-c2ncn3c2[C@@H]2CCN2C(=O)c2c(Cl)cccc2-3)n1 yielded melting point of 200 to 201 °C

// sample CCCCNc1nc(C)c(C(=O)OCC)c2c1nnn2CC , its melting point was 85 to 87 °C

melting point measured on c1ccc(N(c2ccccc2)c2ccc(-c3ccc(-c4ccnc(CNc5ccc6ccccc6c5)n4)cc3)cc2)cc1 = 204 to 205 °C

The measured melting point associated with ClCc1coc(C2=Cc3ccccc3CC2)n1 reads 73 to 74 °C

Lab note: measured melting point of CC1(C)CCCN(C(=O)CN(C(=O)CNC(=O)Nc2cccc(CCO)c2)c2ccccc2)C1 was 175 °C

Form: molecule = COc1ccc(-c2ccnc3c(C(=O)c4cccs4)cnn23)cc1NC(=O)NC(C)C ; melting point = 202 to 204 °C

So, Cc1c(Cl)cccc1N=C1NCCN1C(=O)c1ccc(C#N)cc1 ? Its melting point was 224 to 228 °C

// melting point value for COc1c(O)ccc2oc(-c3ccc(O)cc3)cc12 : 165 to 168 °C

// sample CCCCNC(=O)OC1c2cc(Cl)ccc2C(=O)N1c1ccc2ccc(Cl)nc2n1 (stereo unspecified) , its melting point was 228 to 230 °C

# melting point of Cc1ccc(Sc2ncnc3c(C)csc23)cc1 = 103 to 107 °C

Lab note: CCCCCCCCCCCCCCCCCCSCCCCCCCCCCC(N)=O gave melting point of 108 °C

Looking up CCOC(=O)c1c(-c2ccc(Cl)c(Cl)c2)csc1N1C(=O)c2ccccc2C1=O , I found its melting point recorded as 155 to 156 °C

What the record says about Cc1c(CO)ncn1C : melting point is 161 to 163 °C

So for CC(C)C(=O)N[C@@H](CSC(=O)c1ccccc1)C(=O)NCCSC(=O)C(C)(C)C , the logged melting point turned out to be 123 to 124 °C

The reported value for CS(=O)(=O)NC[C@@H]1CN(c2ccc(N3CCC(=CC#N)CC3)c(F)c2)C(=O)O1 in terms of melting point is 235 to 237 °C

// field: melting point; key: CC(C)n1nc(-c2sc(NC(=O)c3cc(C(F)(F)F)cc(C(F)(F)F)c3)nc2-c2ccccc2)ccc1=O ; value = 207 to 208 °C

The reported value for CCCCc1nc(CO)c(S(=O)(=O)CC)n1Cc1ccc(-c2ccccc2C(=O)O)cc1 in terms of melting point is 210 °C

response.value for Cc1[nH]n(C2CCCO2)c2nc(-c3ccncc3)nc(=O)c1-2 (stereo unspecified) (field: melting point) = 268 to 269 °C

Looking up CC(C)(C)OC(=O)Nc1ccccc1NC(=O)c1ccc(CBr)cc1 , I found its melting point recorded as 282 to 283 °C

Just so you know, measured melting point for O=C(O)c1[nH]c2cc(Br)c(Cl)cc2c1-c1ccccc1 came out at 241 to 242 °C

The reported value for CC(=O)N1CCN2c3c(cccc3C3CCCC32)C1 (stereo unspecified) in terms of melting point is 111 to 113 °C

The value of melting point measured for the molecule CCS(=O)(=O)c1ccc(F)c([N+](=O)[O-])c1 turned out to be 128 to 131 °C

For COc1cc(C(F)(F)F)ccc1C#N the molecule record lists melting point as 59 to 61 °C

The molecule listed as CCSCCC(=O)NNC(=O)N1Cc2ccccc2Oc2ccc(Cl)cc21 shows melting point equal to 126 to 129 °C

Form: molecule = Clc1ccc(CC(OC2CCCC(Cn3ccnc3)O2)c2ccccc2)c(Cl)c1 (stereo unspecified) ; melting point = 118 to 120 °C

Reported melting point of CN(C)Cc1ccc(CSCCN=CNS(=O)(=O)c2ccc(Cl)cc2)o1 : 93 to 96 °C

Input CC1(C)CC(=O)C2C(=NC3=C(C(=O)CC(C)(C)C3)C2c2ccc(C#N)c([N+](=O)[O-])c2)C1 (stereo unspecified) . Output melting point: 274 to 275 °C

// field: melting point; key: CC(CCl)NC(=O)c1c(Cl)cccc1[Si](C)(C)C (stereo unspecified) ; value = 150 to 151 °C

Recorded melting point (molecule CCOC(=O)c1sc2c(c1C)c(N)c(C(=O)c1ccccc1)n2C(C)=O ): 188 °C

Consider CC(=O)CCN1c2ccccc2NC(=O)C1C (racemic) . Its measured melting point is 108 to 109 °C

// field: melting point; key: C[C@H]1Cn2c(=O)[nH]c3ccc(Br)c(c32)CN1C(=O)OC(C)(C)C ; value = 229 °C

Data point: COC(=O)c1ccc(C(=O)CC(=O)c2ccccc2)cc1 ; melting point = 107 to 108 °C

# molecule CC(C=CC1(O)C(C)=CC2(OCCO2)c2ccccc21)=CCO (stereo unspecified) ; its melting point = 116 to 118 °C

Just so you know, measured melting point for CCc1cc(C(=O)c2ccccc2Cl)c(-n2c(C)nnc2CCl)s1 came out at 109 to 110 °C

Entry CCOC(=O)c1c[nH]c2cc(Cl)c(F)c(NCC=O)c2c1=O — recorded melting point = 213 to 216 °C

// recorded melting point for COc1ccc([C@@H]2CC=CC[C@H]2[N+](=O)[O-])cc1OC (racemic) : 114 to 116 °C

Record summary for COC(=O)Cn1cc([C@H]2CCC3C4CC=C5C[C@@H](O)CC[C@]5(C)C4CC[C@@]32C)nn1 (stereo partly specified) : reported melting point = 221 to 223 °C

###

Task for the reader: assign each of the following molecules its reported melting point.

Field melting point (entry CCc1noc(-c2ccccc2)c1-c1ccc(S(N)(=O)=O)cc1 ) reads 167 °C

// melting point value for CCCC1=C(C(=O)O)C(CC)n2ncc(C(=O)OCC)c2N1 (centres undefined) : 160 to 161 °C

CCN(CC)CCNC(=O)c1cc(Cl)c(N)cc1OCC(C)=O has a reported melting point of 105 to 106 °C

melting point reading for COC(=O)c1cc(C(=O)NCCN(C)C)c2cc(Cc3ccc(F)cc3)cnc2c1O : 115 to 116 °C

Input CC(C)(C)OC(=O)N1CCn2ccc(C#N)c2C1 . Output melting point: 97 °C

Sure, the documented melting point for Cc1ccc(-c2ncc(Cl)cc2-c2ccc(S(C)=O)cc2)cn1 (centres undefined) is 122 to 123 °C

The recorded melting point for entry CCCC(=O)Nc1ccc2oc3c(c2c1)CCCC3 equals 133 to 135 °C

Form: molecule = COc1ccc(-c2[nH]nc3c2C(=O)c2c(NC(=O)Cc4ccc(NC(C)=O)cc4)cccc2-3)cc1 ; melting point = 268 °C

Reported melting point for CON=C(C(=O)OC)c1csc(NC(=O)CCl)n1 was 131 °C

melting point recorded for this molecule, CC1CCCCC1C(=O)Nc1ccc(-c2cnc(-c3ccc(NC(=O)C4CCCCCC4)cc3)[nH]2)cc1 (centres undefined) , is 220 to 222 °C

Recorded melting point (molecule COc1ccc(Cl)cc1-c1[nH]c2cccc3c2c1CCNC3=O ): 160 to 162 °C

get_value(item= O=C(O)c1ccccc1-c1ccc([N+](=O)[O-])cn1 , readout=melting point) returns 262 to 264 °C

Lab note: CCc1ccc2ncc([N+](=O)[O-])c(Nc3ccccc3Cl)c2c1 gave melting point of 134 to 136 °C

# melting point (molecule: N#Cc1nn(-c2c(Cl)cc(C(F)(F)F)cc2Cl)cc1-c1ccoc1Cl ) is 125 °C

The value of melting point measured for the molecule O=C(O)c1cccc(C=CC(=O)N2CCc3c([nH]c4ccccc34)C2c2ccc3c(c2)OCO3)c1 (centres undefined) turned out to be 156 to 158 °C

Reported melting point ( CN1CCC(CC(=O)N2c3ccccc3C(=O)Nc3cccc(Cl)c32)CC1 ) = 112 °C

// sample Nc1cccc(-c2nc3ncccc3o2)c1 , its melting point was 179 to 180 °C

Query [O-][N+](=CC=Cc1ccccc1)c1ccccc1 yields melting point of 150 to 152 °C

Please fill in: melting point reported for CC(C)(C)OC(=O)N1CCC(Nc2ncc3c(n2)-c2ccccc2C(c2ccc(Cl)c(Cl)c2)C3)CC1 (centres undefined) = 94 to 96 °C

Quick note, melting point for O=C(CNCc1cccc(-c2ccc(CC(Nc3ccccc3C(=O)c3ccccc3)C(=O)O)cc2)c1)c1ccccc1 (centres undefined) landed at 90 °C

Memo: CCN(CC)CCCCC1CCN(C(=O)N2c3cc(Cl)ccc3C(=O)Nc3cccnc32)CC1 , reported melting point: 126 to 127 °C

So, COC(=O)c1ccc([C@H]2CCN(C(=O)OC(C)(C)C)C[C@@H]2O)cc1 (racemic) ? Its melting point was 146 °C

The value of melting point measured for the molecule CCCCN(CCCC)C(=S)C(=S)N(CCCC)CCCC turned out to be 35 to 38 °C

The recorded melting point for CC(OC(=O)C1CC(=O)c2cc(F)ccc2O1)c1ccccc1 (single isomer, unassigned; (+)) is 98 °C

The recorded melting point for entry O=C(Nc1ccc2c(c1)CCSC2)OCc1ccccc1 equals 116 to 118 °C

// melting point lookup, molecule = O=[N+]([O-])c1cc(S(=O)c2ccccc2)ccc1Cl (centres undefined) , result: 86 to 87 °C

Consider O=C(c1nc2ccccc2s1)C1CCN(CCc2ccc(F)cc2)CC1 . Its measured melting point is 97 to 98 °C

Lab note: measured melting point of Clc1nc(C2CC2)nc(N2CCOCC2)n1 was 99 to 100 °C

Please fill in: melting point reported for CC(C)(C)NCC(=O)c1cccc2cc(O)c(O)cc12 = 140 to 144 °C

CCN(CC)C(=O)c1c(OC)ccc2cc(-c3ccc(OC)cc3)ccc12 yielded melting point of 118 to 120 °C

The molecule listed as COc1ccc(C2(C(=O)O)CCC(=O)CC2)cc1 shows melting point equal to 154 to 156 °C

Measured melting point of Cc1[nH]c2ccc(C(=O)NS(=O)(=O)CCCCl)cc2c1Cc1ccc(Cl)cc1Cl : 95.5 to 96.2 °C

Measured melting point of CONC(=O)Nc1ccc(-c2sc3c(c2CNC(C)c2ccccc2)c(=O)n(C2CCC(O)CC2)c(=O)n3Cc2c(F)cccc2F)cc1 (centres undefined) : 137 to 138 °C

What the record says about Cc1nc(-c2ccc(C(F)(F)F)cc2)ccc1CO : melting point is 76 to 78 °C

Measured melting point, CCOc1nc2ccccc2nc1C(=O)Nc1ccc(OCCCCN2CCc3cc(OC)c(OC)cc3C2)cc1 : 182 °C

So, COC(=O)c1ccc(OCCc2c[nH]cn2)cc1 ? Its melting point was 116 to 118 °C

Quick note, melting point for C#CCN1CCN(c2c(Cl)cc3c(=O)c(C(=O)O)cn4c3c2CCC4C)CC1 (centres undefined) landed at 211 to 213 °C

For this molecule ( CS(=O)(=O)c1cccc(-c2cn(-c3nc(-c4ccc(C(F)(F)F)cc4)cc(C(F)(F)F)n3)cn2)c1 ), measured melting point is 231 °C

melting point in this record for CC(=O)N(C)C(c1ccc(F)cc1)c1ccc(F)cc1 : 99 to 100 °C
